Overview of recorded PBM binding z-score for various sequences
System: RARb:RXRa (NR concentration 270 nM, RXRa partner concentration 90 nM)
Assay: PBM binding z-score (relative to random genomic background probes); higher = stronger binding; sequences stand for … in GC…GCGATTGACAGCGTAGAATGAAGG
assayMetric: PBM binding z-score

In [3]: df
Out[3]:
                         sequencechain          assaymetric  measurednumber
 0  CAAACTAGGTCAAGGTTAAAGTCGGTTTGTGCCA  PBM binding z-score             4.2
 1  ATCACTAGGTAAAGTTCAGTGAAAGATCGATAGA  PBM binding z-score             2.7
 2  TCGAGAAGGTTAGTCGGGGCATTCAGCCAACATA  PBM binding z-score            1.36
 3  TCTAGTTGGTCACGGAGGCCACACACGACGGGTA  PBM binding z-score            2.16
 4  ATCTCTAGCTAAAGTTCAGTGAAAGATCGATAGA  PBM binding z-score            2.68
 5  AGAACGAGGGCAATGATTTGATAGCACGGGTGGC  PBM binding z-score            1.95
 6  TAGCCTAGGTCAGATCGGGCTAGTATACGCTATA  PBM binding z-score            2.78
 7  AGTCAAAGTTCAACTAGGTAACGTAAGATATGCT  PBM binding z-score            5.16
 8  ATATGTAGGTTAGCTGGGGTCACTCAGACTAGGC  PBM binding z-score            3.22
 9  ATCTCTAGGTCAAGTTCAGTGAAAGATCGATAGA  PBM binding z-score            4.55
10  CCTCTTAGTTGACCATAAGGGCAACCGAAGCTCG  PBM binding z-score             1.7
11  GGAACGAGGGCATTCGAGTTGTTAGCATGGCGAT  PBM binding z-score            1.81
12  CCAGCCAGGTGAGAAGGTAACTCAGCCTCGATTA  PBM binding z-score           0.364
13  ATCTCTAGATAAAGTTCAGTGAAAGATCGATAGA  PBM binding z-score            2.17
14  ACTAGCAGGCCAAGGGTCACTCATGATTAGTCCG  PBM binding z-score            3.41
15  CTCGAAAGGTCGGTTGAGTTGAGTATACGGATAA  PBM binding z-score            2.71
16  ATCTCTAGGTAACAAGTTCACTGAAAGAGAGGAC  PBM binding z-score            2.18
17  TCTAGTTGGTCACGGAGGTCACGCACGACGGGTA  PBM binding z-score            4.33
18  CAGCCTTGGTCAGGGCCAGTATAGGAGGAACGTT  PBM binding z-score           0.481
19  CGTCCATGGTCAAAGGTCAGTGAAGAGATGACGG  PBM binding z-score            4.41
20  CAAACTGGGTCACCGGAAGGTCAAAGTCCGCATG  PBM binding z-score             4.9

These measurements were taken from the supplement of paper PMC6555819.
